assay.target: Porcine DPP-IV (Sus scrofa)
Construct: purchased Sigma-Aldrich Germany
Sequence (P22411 whole entry): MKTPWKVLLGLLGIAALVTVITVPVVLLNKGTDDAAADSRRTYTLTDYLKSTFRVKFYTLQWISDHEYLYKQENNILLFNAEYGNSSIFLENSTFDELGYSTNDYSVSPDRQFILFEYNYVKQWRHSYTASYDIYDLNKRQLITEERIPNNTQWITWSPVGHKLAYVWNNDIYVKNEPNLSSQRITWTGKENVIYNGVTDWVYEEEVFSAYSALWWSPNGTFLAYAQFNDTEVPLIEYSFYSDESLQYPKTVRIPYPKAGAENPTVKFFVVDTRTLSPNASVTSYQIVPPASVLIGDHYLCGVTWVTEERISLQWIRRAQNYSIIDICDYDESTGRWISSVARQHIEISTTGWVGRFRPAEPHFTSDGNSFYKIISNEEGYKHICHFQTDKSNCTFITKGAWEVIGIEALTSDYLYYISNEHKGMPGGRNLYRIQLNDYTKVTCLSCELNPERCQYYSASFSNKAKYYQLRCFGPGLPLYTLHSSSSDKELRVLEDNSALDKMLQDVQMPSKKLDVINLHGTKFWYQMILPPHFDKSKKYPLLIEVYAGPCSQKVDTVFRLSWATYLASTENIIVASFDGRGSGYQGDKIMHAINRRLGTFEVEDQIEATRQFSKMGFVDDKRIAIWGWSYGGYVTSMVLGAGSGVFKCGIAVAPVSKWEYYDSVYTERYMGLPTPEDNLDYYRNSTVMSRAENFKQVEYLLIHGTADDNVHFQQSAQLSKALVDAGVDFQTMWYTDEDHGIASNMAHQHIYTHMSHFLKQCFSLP
assay.explanation: Assay of DPP-IV enzyme inhibitory activity (spectrophotometric, Gly-Pro-pNA cleavage)
Type: biochemical
measurement.context: Porcine DPP-IV, Gly-Pro-pNA substrate, 30° C.; mean ± SD of three experiments except compound Nos. 133 & 139; read-out: IC50 (μM) Mean ± SD, inhibitory activity on DPP-IV enzyme activity
Label key: MET means IC50 under 0.9 µM; NOT MET means IC50 of 0.9 µM or more.

Ask: Quick check: IC50 of N#CC1CSCN1C(=O)CN(N)C12CCC(CC1)C2 (stereo not drawn) [Compound No. 63] under 0.9 µM?
Reply: MET

Ask: In plain terms, does CC(C)(C)C1CCC(N(N)CC(=O)N2CSCC2C#N)CC1 (stereo not drawn) [Compound No. 49] come in under 0.9 µM for IC50?
Reply: NOT MET

Ask: Strictly below 0.9 µM in IC50? N#CC1CSCN1C(=O)CN(N)C1CCN(CC(=O)NC23CC4CC(CC(C4)C2)C3)CC1 (stereo not drawn) [Compound No. 103]
Reply: MET

Ask: Answer whether the compound CCOC(=O)Cc1csc(NC(=O)CN2CCC(N(N)CC(=O)N3CSCC3C#N)CC2)n1 (stereo not drawn) [compound 129] has IC50 strictly less than 0.9 µM
Reply: MET

Ask: For N#CC1CSCN1C(=O)CN(N)C1CCNCC1 (stereo not drawn) [Compound No. 72] , is the recorded IC50 below the cut-off of 0.9 µM?
Reply: NOT MET

Ask: Threshold test, IC50 < 0.9 µM: CC1CCC(C(=O)N2CCC(N(N)CC(=O)N3CSCC3C#N)CC2)CC1 (stereo not drawn) [Compound No. 65]
Reply: MET

Ask: Find out if reported IC50 for CCN(C)C(=O)N1CCC(N(N)CC(=O)N2CSCC2C#N)CC1.O=C(O)C(F)(F)F (stereo not drawn) [Compound No. 90] is less than 0.9 µM
Reply: NOT MET

Ask: Quick check: IC50 of N#CC1CSCN1C(=O)CN(N)C1CCC(NCc2ccc(F)cc2)CC1 (stereo not drawn) [Compound No. 93] under 0.9 µM?
Reply: NOT MET

Ask: Would you kindly verify if IC50 of N#CC1CCCN1C(=O)CN(N)C1CCCCCC1 (stereo not drawn) [Compound No. 30] is strictly less than 0.9 µM?
Reply: NOT MET

Source listed as patent US20040106802A1.
